Where these numbers come from: patent US5340833A

target: human high molecular weight urokinase (Homo sapiens); construct: human high molecular weight urokinase; purchased American Diagnostica, Greenwich, Conn; test: Urokinase Direct Assay; type: biochemical; conditions: read-out: uPA Direct: percentage of residual urokinase activity relative to inhibitor-free controls; heading: uPA Direct: percentage of residual urokinase activity relative to inhibitor-free controls; inhibitor concentration of 1 mM
Counter-ions that a name gives are not always drawn.
Using residual urokinase activity at 1000 µM as the sorting value, the categories are low range = under 0.8%, mid range = from 0.8% up to 3%, high range = 3% and over

# bin label for N=C(N)c1cc2c(ccc3ccccc32)s1 [Compound 205, hydrochloride]
low range

Just checking, what class would you give C#Cc1ccc2sc(C(=N)N)cc2c1 [Compound 123, hydrochloride] here?
mid range

Input N=C(N)c1cccc2sccc12 [Compound 317, hydrochloride] ; output its category
high range

Which residual urokinase activity at 1000 µM band matches CC(C)(O)C#Cc1cccc2sc(C(=N)N)cc12 [Compound 42, hydrochloride] ?
low range

State the class of the compound shown: N=C(N)c1cc2sccc2s1 [Compound 322, hydrochloride]
mid range

Class? Entry: N=C(N)c1cc2cc(CCO)ccc2s1 [Compound 113, hydrochloride]
mid range

Hi there! Could you help me figure out the category for CC=Cc1ccc2sc(C(=N)N)cc2c1 [Compound 116, hydrochloride] please?
mid range

# bin lookup: classify N=C(N)c1cc2cccnc2s1 [Compound 318, hydrochloride] by its residual urokinase activity at 1000 µM
high range

###

target: human two-chain tPA (Homo sapiens, UniProt P00750); construct: human two-chain tPA was substituted for urokinase; purchased American Diagnostica; assay: tPA Indirect (Plasminogen-Linked) Assay (tPA Direct Assay result where lower); type: biochemical
Sequence (P00750 311-562 limits assumed): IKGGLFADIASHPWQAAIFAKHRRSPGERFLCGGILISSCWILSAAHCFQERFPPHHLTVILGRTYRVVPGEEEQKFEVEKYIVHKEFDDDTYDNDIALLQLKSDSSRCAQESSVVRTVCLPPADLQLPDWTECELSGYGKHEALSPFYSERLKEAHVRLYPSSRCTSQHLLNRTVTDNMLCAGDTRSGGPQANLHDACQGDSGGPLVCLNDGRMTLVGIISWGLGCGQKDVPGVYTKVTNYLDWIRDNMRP
Sequence (P00750 36-310 limits assumed): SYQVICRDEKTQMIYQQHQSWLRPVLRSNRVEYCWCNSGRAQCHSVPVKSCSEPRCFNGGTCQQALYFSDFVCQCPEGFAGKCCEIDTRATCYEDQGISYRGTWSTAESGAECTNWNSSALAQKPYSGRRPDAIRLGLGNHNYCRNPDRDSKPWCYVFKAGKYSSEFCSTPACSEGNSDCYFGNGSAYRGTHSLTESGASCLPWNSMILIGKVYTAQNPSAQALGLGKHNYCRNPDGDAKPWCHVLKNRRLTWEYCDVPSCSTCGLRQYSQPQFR
PARAMETER: IC50 (µM)
The reply should contain only the number, in µM.

Return reported IC50; argument: N=C(N)c1cc2c(C=Cc3ccc4c(c3)OCO4)cccc2s1
25

###

For each record, write down the corresponding tPA/UPA ratio.
biological target: human two-chain tPA (Homo sapiens, UniProt P00750); construct: human two-chain tPA was substituted for urokinase; purchased American Diagnostica; assay: tPA Indirect (Plasminogen-Linked) Assay (tPA Direct Assay result where lower); assay type: biochemical; details: ratio with respect to urokinase indirect plasminogen-linked IC50; larger = greater specificity for urokinase
Counter-ions that a name gives are not always drawn.

Would you kindly share the measured tPA/UPA ratio for CCCCc1cccc2sc(C(=N)N)cc12.Cl [Compound 10] ?
352

// lookup tPA/UPA ratio for N=C(N)c1cc2c(C=Cc3ccc4c(c3)OCCO4)cccc2s1 [Compound 66, hydrochloride]
395

Looking for the measured tPA/UPA ratio of COc1ccc2sc(C(=N)N)cc2c1Br.Cl [Compound 204] , can you help?
251

What value of tPA/UPA ratio has been recorded for this entry: Cl.N=C(N)c1cc2c(-c3ccc(-c4ccccc4)o3)cccc2s1 [Compound 78]
53

Query (molecule): Cl.N=C(N)c1cc2ccccc2s1 [Compound 1] ; field requested: tPA/UPA ratio
> 200

###

biological target: human plasmin (Homo sapiens, UniProt P00747); construct: plasmin, the potent general protease produced by cleavage of plasminogen by either urokinase or tPA; purchased American Diagnostica; test: Plasmin Assay; format: biochemical; conditions: read-out: PLASMIN IC50
Sequence (P00747 581-810 limits assumed): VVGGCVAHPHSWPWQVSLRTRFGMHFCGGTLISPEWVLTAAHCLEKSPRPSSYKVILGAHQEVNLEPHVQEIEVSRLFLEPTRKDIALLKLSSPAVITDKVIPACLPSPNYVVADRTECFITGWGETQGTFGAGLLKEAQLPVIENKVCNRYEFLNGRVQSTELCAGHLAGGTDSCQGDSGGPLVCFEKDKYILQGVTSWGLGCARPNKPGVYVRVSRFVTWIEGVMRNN
Sequence (P00747 97-580 limits assumed): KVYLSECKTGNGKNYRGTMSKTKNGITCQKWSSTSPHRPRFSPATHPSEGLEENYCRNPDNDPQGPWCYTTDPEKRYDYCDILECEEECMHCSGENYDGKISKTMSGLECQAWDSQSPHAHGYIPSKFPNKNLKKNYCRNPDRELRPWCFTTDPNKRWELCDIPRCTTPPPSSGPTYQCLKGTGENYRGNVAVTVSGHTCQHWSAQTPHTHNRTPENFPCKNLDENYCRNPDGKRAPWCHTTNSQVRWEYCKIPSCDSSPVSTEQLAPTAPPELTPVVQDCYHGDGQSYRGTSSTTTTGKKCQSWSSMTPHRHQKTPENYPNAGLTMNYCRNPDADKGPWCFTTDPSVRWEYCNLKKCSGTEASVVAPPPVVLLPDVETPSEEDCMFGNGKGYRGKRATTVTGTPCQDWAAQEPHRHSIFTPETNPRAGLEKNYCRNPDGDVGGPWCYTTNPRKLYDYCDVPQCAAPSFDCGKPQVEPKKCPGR
Where a name gives a salt, the structure may show the parent alone.
PARAMETER: pIC50
In plain terms, pIC50 is the concentration in mol/L turned into minus its base-10 logarithm.

Requested field: pIC50. Item: N=C(N)c1ccc(/C=C/c2ccc3sc(C(=N)N)cc3c2)cc1 [Compound 122, bis-hydrochloride]
3.44

Quick one: pIC50 of N=C(N)c1cc2cc(C=CC3CC3)ccc2s1 [Compound 121, hydrochloride] ?
2.98

Give its pIC50 value. Item: Cl.N=C(N)c1cc2c(-c3ccccc3)cccc2s1 [Compound 44, hydrochloride]
3.06

Please look up its pIC50: Cl.N=C(N)c1cc2c(C#Cc3ccco3)cccc2s1 [Compound 75, hydrochloride]
3.54

Requested field: pIC50. Item: N=C(N)c1cc2c(/C=C/c3cccc4sc(C(=N)N)cc34)cccc2s1 [Compound 73, bis-hydrochloride]
4.60

So what's the measured pIC50 for this one? Cl.N=C(N)c1cc2c(/C=C/c3ccco3)cccc2s1 [Compound 67, hydrochloride]
3.71

Which pIC50 value belongs to Cc1cccc2sc(C(=N)N)cc12 [Compound 6, hydrochloride] ?
3.06

Given the entry CCc1cccc2sc(C(=N)N)cc12.Cl [Compound 7, hydrochloride] , report its measured pIC50.
3.37

Data request, read-out pIC50, for Cl.N=C(N)c1cc2c(-c3cccs3)cccc2s1 [Compound 50, hydrochloride]
3.42

Dear colleague, I am looking for the recorded pIC50 of the following compound: CCCc1cccc2sc(C(=N)N)cc12.Cl [Compound 9, hydrochloride]
3.23

Which value of pIC50 has been reported for C=Cc1cccc2sc(C(=N)N)cc12.Cl [Compound 17, hydrochloride] in the records?
4.24

Reported pIC50 for CSc1cccc2sc(C(=N)N)cc12.Cl [Compound 58, hydrochloride] : what is it?
3.27

Query: pIC50; subject: C=Cc1ccc2sc(C(=N)N)cc2c1SC.Cl [Compound 201, hydrochloride]
4.37

Recorded pIC50 for CC(C)/C=C/c1cccc2sc(C(=N)N)cc12.Cl [Compound 23, hydrochloride] , please?
3.20

Tell me the measured pIC50 of Cl.N=C(N)c1cc2cc(-c3ccco3)ccc2s1 [Compound 126, hydrochloride] , please.
3.27

What value of pIC50 has been reported for the following compound? N=C(N)c1cc2c(C=Cc3ccccc3)cccc2s1 [Compound 63, hydrochloride]
3.76
